The origin of these recorded values is paper PMC6173509.

# STUDY_SYSTEM: UniProt P08842
# Sequence (P08842 22-583): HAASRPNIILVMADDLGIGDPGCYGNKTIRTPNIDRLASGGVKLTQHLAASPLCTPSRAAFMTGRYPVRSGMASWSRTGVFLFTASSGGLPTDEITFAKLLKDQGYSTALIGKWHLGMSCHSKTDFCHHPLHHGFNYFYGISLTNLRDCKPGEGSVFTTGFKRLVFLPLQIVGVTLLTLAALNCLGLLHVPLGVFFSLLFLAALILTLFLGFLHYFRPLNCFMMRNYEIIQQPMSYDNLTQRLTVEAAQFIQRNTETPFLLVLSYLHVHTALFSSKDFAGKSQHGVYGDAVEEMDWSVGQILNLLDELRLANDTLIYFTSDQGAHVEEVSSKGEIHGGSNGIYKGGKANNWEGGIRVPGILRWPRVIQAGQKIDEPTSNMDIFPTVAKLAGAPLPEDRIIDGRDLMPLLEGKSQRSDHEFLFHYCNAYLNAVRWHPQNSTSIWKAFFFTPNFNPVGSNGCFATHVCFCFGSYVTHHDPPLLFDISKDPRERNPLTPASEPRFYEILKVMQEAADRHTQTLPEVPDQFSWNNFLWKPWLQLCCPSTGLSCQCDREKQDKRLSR
# ASSAY_TEXT: STS inhibition in intact MCF-7 breast cancer cells
# Assay type: cell-based
# Design: endogenous in cells; host or cells: MCF-7 breast cancer cells
# APPLIED_CONDITIONS: MCF7, read-out: % Inhibition of STS Activity in Intact MCF-7 Breast Cancer Cells at 1 μM
Reported inhibition at 1 µM values follow for various molecules
ASSAY_ENDPOINT: inhibition at 1 µM (%)

[[record]]
molecule = "NS(=O)(=O)Oc1ccc2c(C3CCCCC3)cc(=O)oc2c1 [compound 26, 4-Cyclohexylcoumarin-7-O-sulfamate]"
readout_unit = "%"
experimental_result = 80

[[record]]
molecule = "Cc1c(Cl)c(=O)oc2cc(OS(N)(=O)=O)ccc12 [compound 39, 3-Chloro-4-methylcoumarin-7-O-sulfamate]"
readout_unit = "%"
experimental_result = 67

[[record]]
molecule = "NS(=O)(=O)Oc1ccc2c(-c3ccccc3)cc(=O)oc2c1 [compound 22, 4-Phenylcoumarin-7-O-sulfamate]"
readout_unit = "%"
experimental_result = 79

[[record]]
molecule = "CCCCCCCc1c(C)c2ccc(OS(N)(=O)=O)cc2oc1=O [compound 30, 3-Heptyl-4-methylcoumarin-7-O-sulfamate]"
readout_unit = "%"
experimental_result = 100

[[record]]
molecule = "CCCCCCCCCCCCc1cc(=O)oc2cc(OS(N)(=O)=O)ccc12 [compound 17, 4-Dodecylcoumarin-7-O-sulfamate]"
readout_unit = "%"
experimental_result = 95

[[record]]
molecule = "CCCCCCCCCc1c(C)c2ccc(OS(N)(=O)=O)cc2oc1=O [compound 32, 4-Methyl-3-nonylcoumarin-7-O-sulfamate]"
readout_unit = "%"
experimental_result = 99

[[record]]
molecule = "CCCCCCCCc1c(C)c2ccc(OS(N)(=O)=O)cc2oc1=O [compound 31, 4-Methyl-3-octylcoumarin-7-O-sulfamate]"
readout_unit = "%"
experimental_result = 100

